Target: SARS-CoV-2 3CLpro (Severe acute respiratory syndrome coronavirus 2 (2019-nCoV) (SARS-CoV-2), UniProt P0DTD1)
Assay: biochemical
Type: biochemical
Details: read-out: IC50
The entries below come with measured pIC50 values attached.
Answer as the number alone; pIC50 is minus log10 of concentration in mol/L.

Worked cases, pIC50 given:
molecule=[2H]C([2H])(OC(=O)N[C@@H](CC(C)C)C(=O)N[C@H](C=O)C[C@@H]1CCNC1=O)C12CCC(CCCCC)(CC1)CC2 readout=pIC50 valuereported=6.51
molecule="CC(C)C[C@H](NC(=O)OC1CC2CCC(C1)N2C(=O)OCc1ccccc1)C(=O)N[C@@H](C[C@H]1CCNC1=O)C(O)S(=O)(=O)O (stereo partly shown)" readout=pIC50 valuereported=6.43
molecule=CC(C)C[C@H](NC(=O)O[C@@H]1C[C@H]2CC[C@@H](C1)N2C(=O)OCc1ccccc1)C(=O)N[C@H](C=O)C[C@@H]1CCNC1=O readout=pIC50 valuereported=6.41
molecule="CC(C)C[C@H](NC(=O)OCC12CC3CC(CC(C3)C1)C2)C(=O)N[C@@H](C[C@H]1CCNC1=O)C(O)S(=O)(=O)O (stereo partly shown) [Compound 3k]" readout=pIC50 valuereported=6.82
molecule="CC(C)C[C@H](NC(=O)OCC12CC3CC(CC(O)(C3)C1)C2)C(=O)N[C@@H](C[C@H]1CCNC1=O)C(O)S(=O)(=O)O (stereo partly shown)" readout=pIC50 valuereported=6.11

Prompt line: Which pIC50 reading was recorded for the molecule CC(C)C[C@H](NC(=O)OCCC12CC3CC(CC(C3)C1)C2)C(=O)N[C@H](C=O)C[C@H]1CCNC1=O ?
Response line: 6.57

Prompt line: Proceed to CC(C)C[C@H](NC(=O)OCC1CC2C=CC1C2)C(=O)N[C@@H](C[C@@H]1CCNC1=O)C(O)S(=O)(=O)O (stereo partly shown)
Response line: 6.55

Prompt line: Another molecule to look at: CC(C)C[C@H](NC(=O)OCC12CC3CC(CC(O)(C3)C1)C2)C(=O)N[C@@H](C[C@H]1CCNC1=O)C(O)S(=O)(=O)[O-].[Na+] (stereo partly shown)
Response line: 5.99

Prompt line: Next: [2H]C([2H])(OC(=O)N[C@@H](CC(C)C)C(=O)N[C@@H](C[C@@H]1CCNC1=O)C(O)S(=O)(=O)[O-])C12CCC(CCCCC)(CC1)CC2.[Na+] (stereo partly shown)
Response line: 6.51

Prompt line: Note, next up: CC(C)C[C@H](NC(=O)OCCC12CC3CC(CC(C3)C1)C2)C(=O)N[C@@H](C[C@H]1CCNC1=O)C(O)S(=O)(=O)O (stereo partly shown)
Response line: 6.60

Prompt line: Check CC(C)C[C@H](NC(=O)O[C@@H]1C[C@H]2CC[C@@H](C1)N2C(=O)OC(C)(C)C)C(=O)N[C@H](C=O)C[C@@H]1CCNC1=O too.
Response line: 5.72

---

Biological target: SARS-CoV-2 3CLpro (Severe acute respiratory syndrome coronavirus 2 (2019-nCoV) (SARS-CoV-2), UniProt P0DTD1)
Assay: biochemical
Format: biochemical
Settings: read-out: IC50
// IC50 lookup, one value per entry
Your answer is read as nM, so omit the unit and give the number.

Recorded IC50, per entry:
compound="CC(C)C[C@H](NC(=O)OCC1CC2C=CC1C2)C(=O)N[C@H](C=O)C[C@@H]1CCNC1=O (some centres unmarked)" valuereported=260
compound=CC(C)C[C@H](NC(=O)OC[C@@H]1C[C@@H]2CCC[C@@H](C2)C1)C(=O)N[C@H](C=O)C[C@@H]1CCNC1=O valuereported=180
compound="CC(C)C[C@H](NC(=O)OCC12CC3CC(CC(C3)C1)C2)C(=O)N[C@H](C=O)C[C@H]1CCNC1=O [Compound 2k]" valuereported=180
compound="CC(C)C[C@H](NC(=O)OC[C@@]12C[C@@H]3C[C@@H](C[C@@](O)(C3)C1)C2)C(=O)N[C@H](C=O)C[C@@H]1CCNC1=O [Compound 2n]" valuereported=820
compound=[2H]C([2H])(OC(=O)N[C@@H](CC(C)C)C(=O)N[C@H](C=O)C[C@@H]1CCNC1=O)[C@@H]1C[C@@H]2C=CC[C@@H](C2)C1 valuereported=280

Prompt line: For CC(C)C[C@H](NC(=O)OCC12CC3CC(CC(C3)C1)C2)C(=O)N[C@@H](C[C@H]1CCNC1=O)C(O)S(=O)(=O)O (some centres unmarked) [Compound 3l] , what is its reported IC50?
Response line: 270

Prompt line: Subsequent entry: CC(C)C[C@H](NC(=O)OC[C@@]12C[C@@H]3C[C@@H](C[C@@](O)(C3)C1)C2)C(=O)N[C@H](C=O)C[C@@H]1CCNC1=O [Compound 2o]
Response line: 740

Prompt line: Further, for CC(C)C[C@H](NC(=O)OCC1CC2CCC1C2)C(=O)N[C@H](C=O)C[C@@H]1CCNC1=O (some centres unmarked) ?
Response line: 140
